Data origin: patent US20140356358A1

Biological target: T1, human neonatal Fc receptor (hFcRn) (human, UniProt P55899 24-290; P61769 21-119)
T1 construct: Biotinylated in the ELISA, Octet and yeast assays; also called human FcRn; huFcRn
T1 sequence (P55899 24-290 limits assumed, chain 1 of 2): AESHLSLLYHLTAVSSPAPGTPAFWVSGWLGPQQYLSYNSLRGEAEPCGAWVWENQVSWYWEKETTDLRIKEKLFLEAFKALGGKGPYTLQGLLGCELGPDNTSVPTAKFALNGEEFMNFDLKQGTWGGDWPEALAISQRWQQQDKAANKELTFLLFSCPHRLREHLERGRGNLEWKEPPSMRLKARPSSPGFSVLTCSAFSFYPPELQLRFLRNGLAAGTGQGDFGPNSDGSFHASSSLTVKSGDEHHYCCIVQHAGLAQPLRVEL
T1 sequence (P61769 21-119 limits assumed, chain 2 of 2): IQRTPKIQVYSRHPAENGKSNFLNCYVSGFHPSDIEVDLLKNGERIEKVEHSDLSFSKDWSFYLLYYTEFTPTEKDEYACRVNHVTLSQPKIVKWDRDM
Assay: phage ELISA pH 7.4;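 further: higher score means stronger binding and above about 3 to 5 exceeds background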
observed_property: ELISA score
// response body must contain only the number

>  <binder>
L5 isolate with insertion SEQ ID NO: 480 (other) EPKSCDKTHTCPPCPAPELLGGPSVFLFPPKPKDTLMISRTPEVTCVVVDVSHEDPEVKFNWYVDGVEVHNAKTKPREEQYNSTYRVVSVLTVLHQDWLNGKEYKCKVSNKALPAPIEKTISKAKGQPREPQVYTLPPSRDELTKNQVSLTCLVKGFYPSDIAVEWESNGGCAGPYWACGGGQPENNYKTTPPVLDSDGSFFLYSKLTVDKSRWQQGNVFSCSVMHEALHNHYTQKSLSLSPGK

>  <observed_value>
0.7

$$$$
>  <binder>
L5 isolate with insertion SEQ ID NO: 477 (other) EPKSCDKTHTCPPCPAPELLGGPSVFLFPPKPKDTLMISRTPEVTCVVVDVSHEDPEVKFNWYVDGVEVHNAKTKPREEQYNSTYRVVSVLTVLHQDWLNGKEYKCKVSNKALPAPIEKTISKAKGQPREPQVYTLPPSRDELTKNQVSLTCLVKGFYPSDIAVEWESNGGCQQIKEWCGGGQPENNYKTTPPVLDSDGSFFLYSKLTVDKSRWQQGNVFSCSVMHEALHNHYTQKSLSLSPGK

>  <observed_value>
1.6

$$$$
>  <binder>
L5 isolate with insertion SEQ ID NO: 462 (other) EPKSCDKTHTCPPCPAPELLGGPSVFLFPPKPKDTLMISRTPEVTCVVVDVSHEDPEVKFNWYVDGVEVHNAKTKPREEQYNSTYRVVSVLTVLHQDWLNGKEYKCKVSNKALPAPIEKTISKAKGQPREPQVYTLPPSRDELTKNQVSLTCLVKGFYPSDIAVEWESNGGCDWHRMKCGGGQPENNYKTTPPVLDSDGSFFLYSKLTVDKSRWQQGNVFSCSVMHEALHNHYTQKSLSLSPGK

>  <observed_value>
1.4

$$$$

# context switch: different binder, same ELISA score
Item L5 isolate with insertion SEQ ID NO: 392 (other) EPKSCDKTHTCPPCPAPELLGGPSVFLFPPKPKDTLMISRTPEVTCVVVDVSHEDPEVKFNWYVDGVEVHNAKTKPREEQYNSTYRVVSVLTVLHQDWLNGKEYKCKVSNKALPAPIEKTISKAKGQPREPQVYTLPPSRDELTKNQVSLTCLVKGFYPSDIAVEWESNGGCPHMFPWCGGGQPENNYKTTPPVLDSDGSFFLYSKLTVDKSRWQQGNVFSCSVMHEALHNHYTQKSLSLSPGK : provide ELISA score
15.1
